assay_target: HLA-B*07:02
test_method_notes: IEDB peptide-MHC binding, purified MHC/competitive/radioactivity; filed as Kd, often an IC50 or EC50 that approximates it; bounds were set here for any values at or beyond the usual limits of such assays
assay_setup: source organism: Hepatitis B virus
metric: Kd (nM)

| polymer_sequence | assay_target | metric | numeric_value |
| --- | --- | --- | --- |
| LPVCAPSSA | HLA-B*07:02 | Kd | 115 |

----------
assay_target: HLA-B*27:05
test_method_notes: IEDB peptide-MHC binding, purified MHC/direct/fluorescence; filed as Kd, often an IC50 or EC50 that approximates it; bounds were set here for any values at or beyond the usual limits of such assays
assay_setup: source organism: Influenza A virus (A/turkey/Minnesota/511/1978(H9N2))

| polymer_sequence | Kd |
| --- | --- |
| DLLENLQAY | ≥ 20 µM |
